# ASSAY NAME: Single dose PK in healthy subjects (Cohorts 1, 2, S1 and S2), plasma
# Format: in vivo, human
# CONDITION NOTES: human, plasma, intravenous, 112 mg; 1 hr; read-out: Plasma concentration, Median
MEASURED QUANTITY: concentration at 1 h (ng/mL)
Report the figure in ng/mL without appending any unit label.

Exam item: Bench note: what concentration at 1 h did `COC(=O)N1CCC[C@H](NS(C)(=O)=O)[C@@H]1CO[C@H]1CC[C@@H](c2ccccc2)CC1` show?
Marked response: 162

* * *

# ASSAY NAME: Single dose PK in healthy subjects (Cohorts 1, 2, S1 and S2), plasma
# Assay type: in vivo, human
# CONDITION NOTES: human, plasma, intravenous, 14 mg; 1 hr; read-out: Plasma concentration, Mean
MEASURED QUANTITY: concentration at 1 h (ng/mL)
Enter your answer as a number in ng/mL; do not include the unit.

Exam item: State the recorded concentration at 1 h for this entry: `COC(=O)N1CCC[C@H](NS(C)(=O)=O)[C@@H]1CO[C@H]1CC[C@@H](c2ccccc2)CC1`
Marked response: 26.6
